Recorded Ratio by entry
Test system: Mus musculus
protocol summary: Analgesic activity in po dosed mouse assessed as inhibition of phenylquinone-induced writhing measured up to 10 mins relative to aspirin
Assay type: functional
# print the numeric value only

Answered cases to consult:
molecule="CC(O)(C(=O)O)c1ccc2c(=O)c3ccccc3ccc2c1 (racemic)" metric=Ratio obs_value=1.5
molecule=O=C(O)Cc1ccc2c(=O)c3ccccc3ccc2c1 metric=Ratio obs_value=2

Lookup: I'm curious: which Ratio was measured for CC(C(=O)O)c1ccc2c(=O)c3ccccc3ccc2c1 (racemic) tested on Mus musculus?
Found: 12

Lookup: Also, COC(=O)C(C)c1ccc2c(=O)c3ccccc3ccc2c1 (racemic) please.
Found: 2

Lookup: Also, CCN(CC)CCOC(=O)C(C)c1ccc2c(=O)c3ccccc3ccc2c1.Cl (racemic) please.
Found: 10
